Origin of measurements: paper PMC6151961

Target: CA IX (Homo sapiens)
Assay: biochemical
readout-kind: log10 of Ki in nM
Quick one: just the number, no unit, thanks!

Examples with their reported log10 of Ki in nM follow.
[
  {
    "molecule": "CC(=O)NNc1ccccc1S(N)(=O)=O",
    "log10 of Ki in nM": 2.243
  },
  {
    "molecule": "NS(=O)(=O)c1ccc(-c2cccc(C=O)c2)cc1",
    "log10 of Ki in nM": 1.993
  },
  {
    "molecule": "COC(=O)[C@H]1O[C@@H](n2cc(COC(=O)c3ccc(S(N)(=O)=O)cc3)nn2)[C@H](OC(C)=O)[C@@H](OC(C)=O)[C@@H]1OC(C)=O",
    "log10 of Ki in nM": 2.097
  },
  {
    "molecule": "NOC(=O)c1cc(Cl)c(Cl)c(C(=O)ON)c1",
    "log10 of Ki in nM": 1.699
  },
  {
    "molecule": "NS(=O)(=O)c1ccc(NC(=O)Cn2ccc(=O)c(S(N)(=O)=O)c2)cc1",
    "log10 of Ki in nM": 1.491
  }
]

INPUT: # log10 of Ki in nM lookup, item CC(=O)OC[C@H]1O[C@@H]([S+]([O-])Cc2cn(-c3ccc(S(N)(=O)=O)cc3)nn2)[C@H](OC(C)=O)[C@@H](OC(C)=O)[C@H]1OC(C)=O (stereo partly drawn)
OUTPUT: 0.886

INPUT: Endpoint output: log10 of Ki in nM of CC(=O)OC[C@H]1O[C@@H](n2cc(-c3ccc(S(N)(=O)=O)cc3)nn2)[C@H](OC(C)=O)[C@@H](OC(C)=O)[C@@H]1OC(C)=O . Value?
OUTPUT: 2.079

INPUT: Would you mind telling me what log10 of Ki in nM value was observed for NS(=O)(=O)c1ccc(OCc2ccc(F)cc2)cc1 ?
OUTPUT: 0.869

INPUT: Entry NS(=O)(=O)c1ccc(C(=O)NNC(=O)Nc2ccc([N+](=O)[O-])cc2)cc1 : reported log10 of Ki in nM = ?
OUTPUT: 0.505

INPUT: Fill in: log10 of Ki in nM of CCOc1nc(NCCc2ccc(S(N)(=O)=O)cc2)nc(OCC)n1 is ___
OUTPUT: 1.079

INPUT: Data request, read-out log10 of Ki in nM, for Nc1c(Cl)cc(S(=O)(=O)Nc2nnc(S(N)(=O)=O)s2)cc1Br
OUTPUT: 1.362

INPUT: Entry CCCCCOS(N)(=O)=O has what log10 of Ki in nM?
OUTPUT: 2.100

###

Experiment: RP-LC chromatographic lipophilicity (logkw)
Type: physicochemical
Details: chromatographic lipophilicity from gradient RP-LC, Luna RP-C18, water/acetonitrile with 0.1% formic acid, 30 °C
readout-kind: logkw

Sample answers from the record:
[
  {
    "smiles-repr": "Cc1cc(S(=O)(=O)NC(=N)Nc2nnc(S(N)(=O)=O)s2)c(SCc2cccc(C(F)(F)F)c2)cc1Cl",
    "logkw": 4.600
  },
  {
    "smiles-repr": "Cc1cc(S(=O)(=O)NC(=N)Nc2cccc(S(N)(=O)=O)c2)c(SCc2cccc(C(F)(F)F)c2)cc1Cl",
    "logkw": 4.470
  },
  {
    "smiles-repr": "Cc1cc(S(=O)(=O)NC(=N)NCc2ccc(S(N)(=O)=O)cc2)c(SCc2ccccc2)cc1Cl",
    "logkw": 3.920
  },
  {
    "smiles-repr": "Cc1cc(S(=O)(=O)NC(=N)Nc2ccc(S(N)(=O)=O)cc2)c(SCc2cccc(C(F)(F)F)c2)cc1Cl",
    "logkw": 4.530
  },
  {
    "smiles-repr": "Cc1cc(S(=O)(=O)NC(=N)Nc2nnc(S(N)(=O)=O)s2)c(SCc2ccccc2)cc1Cl",
    "logkw": 4.070
  },
  {
    "smiles-repr": "Cc1cc(S(=O)(=O)NC(=N)NNc2ccc(S(N)(=O)=O)cc2)c(SCc2cc(=O)[nH]c3ccccc23)cc1Cl",
    "logkw": 3.770
  },
  {
    "smiles-repr": "Cc1cc(S(=O)(=O)NC(=N)NNc2ccc(S(N)(=O)=O)cc2)c(SCc2ccccc2)cc1Cl",
    "logkw": 4.090
  },
  {
    "smiles-repr": "Cc1cc(S(=O)(=O)NC(=N)Nc2cccc(S(N)(=O)=O)c2)c(SCc2cccc3ccccc23)cc1Cl",
    "logkw": 3.940
  }
]

INPUT: # input compound: Cc1cc(S(=O)(=O)NC(=N)Nc2ccccc2S(N)(=O)=O)c(SCc2cc(=O)[nH]c3ccccc23)cc1Cl ; wanted: its logkw
OUTPUT: 3.870

INPUT: Name the reported logkw value associated with the compound Cc1cc(S(=O)(=O)NC(=N)NCc2ccc(S(N)(=O)=O)cc2)c(SCc2cccc3ccccc23)cc1Cl
OUTPUT: 3.990

INPUT: Given the compound Cc1cc(S(=O)(=O)NC(=N)NNc2ccc(S(N)(=O)=O)cc2)c(SCc2cc3c(cc2Cl)OCO3)cc1Cl , what is its reported logkw?
OUTPUT: 3.690

INPUT: So what's the measured logkw for this one? Cc1cc(S(=O)(=O)NC(=N)NNc2ccc(S(N)(=O)=O)cc2)c(SCc2ccc(C(F)(F)F)cc2)cc1Cl
OUTPUT: 4.460

###

logkw overview
Assay: RP-LC chromatographic lipophilicity (logkw)
Format: physicochemical
Conditions: chromatographic lipophilicity from gradient RP-LC, Luna RP-C18, water/acetonitrile with 0.1% formic acid, 30 °C

Previously resolved entries follow.
[
  {
    "smiles-repr": "Cc1cc(S(=O)(=O)NC(=N)Nc2ccccc2S(N)(=O)=O)c(SCc2ccc(C(F)(F)F)cc2)cc1Cl",
    "logkw": 4.430
  },
  {
    "smiles-repr": "Cc1cc(S(=O)(=O)NC(=N)NNc2ccc(S(N)(=O)=O)cc2)c(SCc2cccc3ccccc23)cc1Cl",
    "logkw": 3.830
  },
  {
    "smiles-repr": "Cc1cc(S(=O)(=O)NC(=N)Nc2ccc(S(N)(=O)=O)cc2)c(SCc2cc(=O)[nH]c3ccccc23)cc1Cl",
    "logkw": 3.830
  },
  {
    "smiles-repr": "Cc1cc(S(=O)(=O)NC(=N)Nc2cccc(S(N)(=O)=O)c2)c(SCc2cc(=O)[nH]c3ccccc23)cc1Cl",
    "logkw": 3.800
  }
]

INPUT: Sample Cc1cc(S(=O)(=O)NC(=N)Nc2ccccc2S(N)(=O)=O)c(SCc2ccccc2)cc1Cl — what was its logkw?
OUTPUT: 4.090

###

Biological target: CA IX (Homo sapiens, UniProt Q16790)
Experiment: biochemical
Conditions: experimental value from the library Ki (IDs A…, B…); values equal log10 of Ki in nM
Give Satisfied when the value for log10 of Ki in nM is at least 2. Give Not satisfied when it is less.

[
  {
    "smiles-repr": "O=c1ccc2ccc(OCc3cn(-c4ccc(C(F)(F)F)cc4)nn3)cc2o1",
    "tested-on": "CA IX (Homo sapiens, UniProt Q16790)",
    "group": "Not satisfied"
  }
]

INPUT: Has COc1cccc(C(=O)CN2C(=O)C=C(C)OS2(=O)=O)c1 a recorded log10 of Ki in nM greater than or equal to 2?
OUTPUT: Satisfied

INPUT: Item NS(=O)(=O)c1ccc(NC(=O)c2ccc(/N=C3\C(=O)Nc4ccc([N+](=O)[O-])cc43)cc2)cc1 with log10 of Ki in nM of 2 or above?
OUTPUT: Satisfied

###

Target: CA IX (Homo sapiens)
Assay: biochemical
readout-kind: pKi
To interpret pKi, take it as minus log10 of a concentration measured in moles per litre.

INPUT: Need pKi, item C[C@]12CC[C@@H](OS(N)(=O)=O)CC1=C[C@@H](O)[C@@H]1[C@@H]2CC[C@]2(C)C(=O)CC[C@@H]12
OUTPUT: 7.19

###

Biological target: CA IX (Homo sapiens, UniProt Q16790)
Experiment: biochemical
# log10 of Ki in nM per entry
Give the figure only, with no unit attached.

Observe how each entry below is paired with its result.
[
  {
    "molecule": "NS(=O)(=O)c1ccc(-c2cn([C@@H]3O[C@H](CO)[C@@H](O)[C@H](O)[C@H]3O)nn2)cc1 [A1466]",
    "reading": 1.897
  },
  {
    "molecule": "NS(=O)(=O)c1ccc(C(=O)NCc2cn([C@@H]3O[C@H](CO)[C@H](O)[C@H](O)[C@H]3O)nn2)cc1 [A1960]",
    "reading": 2.556
  }
]

INPUT: # get_value(readout= log10 of Ki in nM, system= CA IX (Homo sapiens, UniProt Q16790)) for COc1ccc2c(=O)n(-c3ccc(S(N)(=O)=O)cc3)c(S)nc2c1 [B0440]
OUTPUT: 1.653

INPUT: Find log10 of Ki in nM (CA IX (Homo sapiens, UniProt Q16790)) for the entry Nc1c(C(=O)N/N=C2\C(=O)N(Cc3ccccc3)c3ccccc32)cnn1-c1ccc(S(N)(=O)=O)cc1 [A0861]
OUTPUT: 1.301

INPUT: Observed log10 of Ki in nM on CA IX (Homo sapiens, UniProt Q16790) for NS(=O)(=O)OCCCCOS(N)(=O)=O [A2532] , please.
OUTPUT: 4.732

INPUT: Hello, I am looking for reported log10 of Ki in nM with CA IX (Homo sapiens, UniProt Q16790) for NS(=O)(=O)c1ccc(CNC(=S)N[C@@H]2O[C@H](CO)[C@@H](O)[C@H](O)[C@H]2O)cc1 [A0577] . Could you help?
OUTPUT: 0.944

INPUT: Record CCOC(=O)c1cc(O)ccc1O [A2120] : what is its log10 of Ki in nM with CA IX (Homo sapiens, UniProt Q16790)?
OUTPUT: 2.934

INPUT: # returns recorded log10 of Ki in nM (system: CA IX (Homo sapiens, UniProt Q16790)) for CC(=O)OC[C@H]1O[C@@H]([S+]([O-])Cc2cn(-c3ccc(S(N)(=O)=O)cc3)nn2)[C@H](OC(C)=O)[C@@H](OC(C)=O)[C@@H]1OC(C)=O (some centres unmarked) [B0212]
OUTPUT: 0.996
